experiment: Acute toxicity in mice; set-up: species or system Kunming mice; conditions: mouse, in vivo, ip, intraperitoneal injection, Karber method
Peptide text beside a SMILES is read from it.
QUANTITY_MEASURED: LD50

What does the record list as LD50 for CC(C)C[C@H](NC(=O)[C@H](CCCCN)NC(=O)[C@H](CC(C)C)NC(=O)[C@H](CO)NC(=O)[C@H](CC(C)C)NC(=O)[C@H](CCCN)NC(=O)[C@H](Cc1ccccc1)NC(=O)[C@@H]1CCCN1)C(N)=O [Compound 2, Pro-Phe-Orn-Leu-Ser-Leu-Lys-Leu-NH2] (HELM PEPTIDE1{P.F.[Orn].L.S.L.K.L.[am]}$$$$V2.0) ?
> 1000 mg/kg

* * *

system: E-2b, clinical isolated drug-resistant strain ESBL; details: strain E-2b (ESBL)
Ends that are not written are not given here.
Each item that follows carries a reported MIC.
Provide only the numeric value, understood in µM.

[
  {
    "SUBSTANCE": "PWRLRLHL-NH2 [Compound 13]",
    "EXPERIMENTAL_VALUE": 8
  },
  {
    "SUBSTANCE": "Pro-Trp-Orn-Leu-Orn-Leu-His-Leu-NH2 (PWXLXLHL; HELM PEPTIDE1{P.W.[Orn].L.[Orn].L.H.L.[am]}$$$$V2.0; N-terminus assumed; SMILES CC(C)C[C@H](NC(=O)[C@H](Cc1c[nH]cn1)NC(=O)[C@H](CC(C)C)NC(=O)[C@H](CCCN)NC(=O)[C@H](CC(C)C)NC(=O)[C@H](CCCN)NC(=O)[C@H](Cc1c[nH]c2ccccc12)NC(=O)[C@@H]1CCCN1)C(N)=O) [Compound 9]",
    "EXPERIMENTAL_VALUE": 8
  },
  {
    "SUBSTANCE": "PWRLRLRL-NH2 [Compound 15]",
    "EXPERIMENTAL_VALUE": 4
  },
  {
    "SUBSTANCE": "PWKLSLHL-NH2 [Compound 8]",
    "EXPERIMENTAL_VALUE": 16
  }
]

API: the following record is the query input.
What does the record list as MIC for Pro-Phe-Lys-Leu-Ser-Leu-His-Leu-NH2 (PFKLSLHL-NH2) [Compound J-1, reference compound] ?
32

* * *

Each item that follows carries a reported MIC C. parapsilosis ATCC2001.
test system: C. parapsilosis ATCC2001; conditions: ATCC2001
Ends that are not written are not given here.
Provide only the numeric value, understood in µM.

Record excerpt, results attached:
[
  {
    "SUBSTANCE": "H-PFRLRLHL-NH2 [Compound 5]",
    "VALUE_UNIT": "µM",
    "MIC C. parapsilosis ATCC2001": 16
  },
  {
    "SUBSTANCE": "H-PFKLKLHL-NH2 [Compound 1]",
    "VALUE_UNIT": "µM",
    "MIC C. parapsilosis ATCC2001": 32
  },
  {
    "SUBSTANCE": "H-PWRLSLRL-NH2 [Compound 14]",
    "VALUE_UNIT": "µM",
    "MIC C. parapsilosis ATCC2001": 8
  },
  {
    "SUBSTANCE": "H-PWRLSLHL-NH2 [Compound 12]",
    "VALUE_UNIT": "µM",
    "MIC C. parapsilosis ATCC2001": 16
  },
  {
    "SUBSTANCE": "PWKLSLHL-NH2 [Compound 8]",
    "VALUE_UNIT": "µM",
    "MIC C. parapsilosis ATCC2001": 16
  },
  {
    "SUBSTANCE": "H-PFRLSLRL-NH2 [Compound 6]",
    "VALUE_UNIT": "µM",
    "MIC C. parapsilosis ATCC2001": 16
  },
  {
    "SUBSTANCE": "PWRLRLRL-NH2 [Compound 15]",
    "VALUE_UNIT": "µM",
    "MIC C. parapsilosis ATCC2001": 4
  },
  {
    "SUBSTANCE": "PWRLRLHL-NH2 [Compound 13]",
    "VALUE_UNIT": "µM",
    "MIC C. parapsilosis ATCC2001": 8
  },
  {
    "SUBSTANCE": "H-PFRLRLRL-NH2 [Compound 7]",
    "VALUE_UNIT": "µM",
    "MIC C. parapsilosis ATCC2001": 8
  }
]

API: the following record is the query input.
What does the record list as MIC C. parapsilosis ATCC2001 for H-PFRLSLHL-NH2 [Compound 4] ?
16

* * *

Each item that follows carries a reported MIC C. sakazakii ATCC29544.
system: Cronobacter sakazakii (ATCC 29544); conditions: ATCC 29544
Provide only the numeric value, understood in µM.

Record excerpt, results attached:
[
  {
    "SUBSTANCE": "H-PWRLSLRL-NH2 [Compound 14]",
    "QUANTITY_MEASURED": "MIC C. sakazakii ATCC29544",
    "EXPERIMENTAL_VALUE": 8
  },
  {
    "SUBSTANCE": "H-PFRLRLHL-NH2 [Compound 5]",
    "QUANTITY_MEASURED": "MIC C. sakazakii ATCC29544",
    "EXPERIMENTAL_VALUE": 32
  }
]

API: the following record is the query input.
What does the record list as MIC C. sakazakii ATCC29544 for H-PFKLKLHL-NH2 [Compound 1] ?
32

* * *

Each item that follows carries a reported MIC.
test system: S-2a, clinical isolated drug-resistant strain MRSA; conditions: strain S-2a (MRSA)
Ends that are not written are not given here.
Provide only the numeric value, understood in µM.

[
  {
    "SUBSTANCE": "PWRLRLHL-NH2 [Compound 13]",
    "MIC [µM]": 32
  },
  {
    "SUBSTANCE": "Pro-Trp-Orn-Leu-Orn-Leu-His-Leu-NH2 (PWXLXLHL; HELM PEPTIDE1{P.W.[Orn].L.[Orn].L.H.L.[am]}$$$$V2.0; N-terminus assumed; SMILES CC(C)C[C@H](NC(=O)[C@H](Cc1c[nH]cn1)NC(=O)[C@H](CC(C)C)NC(=O)[C@H](CCCN)NC(=O)[C@H](CC(C)C)NC(=O)[C@H](CCCN)NC(=O)[C@H](Cc1c[nH]c2ccccc12)NC(=O)[C@@H]1CCCN1)C(N)=O) [Compound 9]",
    "MIC [µM]": 64
  },
  {
    "SUBSTANCE": "Pro-Phe-Lys-Leu-Ser-Leu-His-Leu-NH2 (PFKLSLHL-NH2) [Compound J-1, reference compound]",
    "MIC [µM]": 128
  },
  {
    "SUBSTANCE": "PWKLSLHL-NH2 [Compound 8]",
    "MIC [µM]": 64
  }
]

API: the following record is the query input.
What does the record list as MIC for PWRLRLRL-NH2 [Compound 15] ?
8

* * *

Tested on: E-5b, clinical isolated drug-resistant strain ESBL
Conditions: strain E-5b (ESBL)
Protocol: […] Simply, a proper amount of the cryopreserved bacterium or fungus was added to fresh MH/SD medium, and cultured on a shaker overnight at 180 rpm at 37° C. […] According to naked eye observations, the concentration of the compound in the first transparent well following the turbid wells was recorded as the MIC of the compound, namely, the MIC value of the compound to the bacterium or fungus.
Ends that are not written are not given here.
Each item that follows carries a reported MIC.
Record the result as a number with its unit.

Record excerpt, results attached:
[
  {
    "SUBSTANCE": "PWRLRLHL-NH2 [Compound 13]",
    "QUANTITY_MEASURED": "MIC",
    "EXPERIMENTAL_VALUE": "4 µM"
  },
  {
    "SUBSTANCE": "PWKLSLHL-NH2 [Compound 8]",
    "QUANTITY_MEASURED": "MIC",
    "EXPERIMENTAL_VALUE": "16 µM"
  },
  {
    "SUBSTANCE": "Pro-Phe-Lys-Leu-Ser-Leu-His-Leu-NH2 (PFKLSLHL-NH2) [Compound J-1, reference compound]",
    "QUANTITY_MEASURED": "MIC",
    "EXPERIMENTAL_VALUE": "32 µM"
  },
  {
    "SUBSTANCE": "PWRLRLRL-NH2 [Compound 15]",
    "QUANTITY_MEASURED": "MIC",
    "EXPERIMENTAL_VALUE": "4 µM"
  }
]

What does the record list as MIC for Pro-Trp-Orn-Leu-Orn-Leu-His-Leu-NH2 (PWXLXLHL; HELM PEPTIDE1{P.W.[Orn].L.[Orn].L.H.L.[am]}$$$$V2.0; N-terminus assumed; SMILES CC(C)C[C@H](NC(=O)[C@H](Cc1c[nH]cn1)NC(=O)[C@H](CC(C)C)NC(=O)[C@H](CCCN)NC(=O)[C@H](CC(C)C)NC(=O)[C@H](CCCN)NC(=O)[C@H](Cc1c[nH]c2ccccc12)NC(=O)[C@@H]1CCCN1)C(N)=O) [Compound 9] ?
8 µM
